# ASSAY_PROCEDURE: solvent given as SMILES
# SETUP_CONDITIONS: in CN(C)C=O
OBSERVATION_TYPE: emission maximum (nm)
API: value field is a number in nm; no unit string.

Record excerpt, results attached:
IN: Name the recorded emission maximum of the molecule listed here: Cc1cc(C)c(B(c2ccc(N3c4ccccc4Oc4ccccc43)cc2)c2c(C)cc(C)cc2C)c(C)c1
OUT: 665.64

IN: # return recorded emission maximum for input N#CC(C#N)=C(c1ccc(N(c2ccccc2)c2ccccc2)cc1)c1ccc(N(c2ccccc2)c2ccccc2)cc1
OUT: 515.24

IN: Assign emission maximum to the following record: CN1CCN(c2ccc3c4c(cccc24)C(=O)c2ccccc2-3)CC1
OUT: 621

IN: Give the reported emission maximum for this molecule. CCN(CC)c1ccc2cc(-c3cc(SC)c(C#N)c(=O)o3)c(=O)oc2c1
OUT: 585

IN: Report emission maximum for NCCCCCCCCCCCCN1C(=O)c2ccc3c4ccc5c6c(ccc(c7ccc(c2c37)C1=O)c64)C(=O)N(c1ccc(O)cc1)C5=O
OUT: 534

Moving on to the next molecule.
IN: Entry c1ccc(CO[Si]23n4c5c6ccccc6c4/N=C4N=C(/N=c6/c7ccccc7c(n62)=c2c6ccccc6c(n23)=N5)c2ccccc2\4)cc1 (stereo not given) needs its emission maximum filled in; supply it.
OUT: 671

###

# ASSAY_PROCEDURE: solvent given as SMILES
# SETUP_CONDITIONS: in CCN(CC)CC
OBSERVATION_TYPE: emission maximum (nm)
# number only, unit nm dropped from output

IN: Return value of emission maximum for input CCCCC(CC)Cn1c2cc(C#N)c(-c3ccc(N(c4ccccc4)c4ccccc4)cc3)cc2c2cc(-c3ccc(N(c4ccccc4)c4ccccc4)cc3)c(C#N)cc21 (centres undefined) , no commentary.
OUT: 464.65

---
IN: Look up and state reported emission maximum for Oc1ccccc1/C=N/N=C/c1ccccc1O
OUT: 576.37

IN: Answer with reported emission maximum of Cc1c2oc3c(C)c(N)cc(C(=O)NC4OC(=O)C(C(C)C)N(C)C(=O)CN(C)C(=O)C5CCCN5C(=O)C(C(C)C)NC4=O)c3nc-2c(C(=O)NC2OC(=O)C(C(C)C)N(C)C(=O)CN(C)C(=O)C3CCCN3C(=O)C(C(C)C)NC2=O)c(N)c1=O (centres undefined)
OUT: 597.77

IN: Determine from records and report emission maximum for CCCCC(CC)Cn1c2cc(C#N)ccc2c2cc(-c3ccc(N(c4ccccc4)c4ccccc4)cc3)c(C#N)cc21 (centres undefined)
OUT: 461.69

###

# ASSAY_PROCEDURE: solvent given as SMILES
# SETUP_CONDITIONS: in Cc1ccccc1
Reported emission maximum by item:
Give just the numeric value; nm need not be written.

Completed entries (count: 10):
IN: Quick one: give measured emission maximum for CC(C)(C)c1ccc2c(c1)Sc1cc(C(C)(C)C)ccc1N2c1ccc2c(ccc3nc4ccc5cc(N6c7ccc(C(C)(C)C)cc7Sc7cc(C(C)(C)C)ccc76)ccc5c4nc32)c1
OUT: 682

IN: Given the compound CC(C)(C)c1ccc(C2=c3sc4ccccc4c3=[N+]3C2=Nc2c(-c4ccc(C(C)(C)C)cc4)c4sc5ccccc5c4n2[B-]3(F)F)cc1 , write its reported emission maximum.
OUT: 796

IN: Please look at this compound and report its emission maximum: CCCCOC(=O)c1cc(Cl)c2c3c(Cl)cc4c5c(cc(Cl)c(c6c(Oc7ccc(C(=O)OC)cc7)cc(C(=O)OCCCC)c1c26)c53)C(=O)N(c1c(C(C)C)cccc1C(C)C)C4=O
OUT: 560

IN: Query emission maximum for CC1=[N+]2C(=C(c3c4ccccc4cc4ccccc34)c3ccc(C)n3[B-]2(F)F)C=C1
OUT: 530

IN: Let me know recorded emission maximum for O=P1(c2ccccc2)C(c2cc(C(F)(F)F)cc(C(F)(F)F)c2)=Cc2c3ccc4cccc5ccc(c6cc(-c7ccc(N(c8ccccc8)c8ccccc8)cc7)n1c26)c3c45 (configuration not stated) , thanks.
OUT: 586

IN: Please report emission maximum for the following compound: c1ccc2c(c1)Cc1ccccc1N2c1c2ccccc2cc2ccccc12
OUT: 535

IN: Please list emission maximum recorded for the compound CN(C)c1ccc2c3c(ccc2c1)C(=O)CCC3
OUT: 417

IN: Output measured emission maximum for this item: CCN(CC)c1ccc([N+]2=Cc3ccc4c5c(ccc4c3O[B-]2(c2c(F)c(F)c(F)c(F)c2F)c2c(F)c(F)c(F)c(F)c2F)C=[N+](c2ccc(N(CC)CC)cc2)[B-](c2c(F)c(F)c(F)c(F)c2F)(c2c(F)c(F)c(F)c(F)c2F)O5)cc1
OUT: 644

IN: Give recorded emission maximum. CCC1=C(C)C2=C(c3c4ccccc4cc4ccccc34)c3c(C)c(CC)c(C)n3[B-](F)(F)[N+]2=C1C
OUT: 544

IN: Supply recorded emission maximum for CCN1c2ccc(/C=N/Nc3ccccn3)cc2Sc2cc(-c3ccccc3)ccc21 here.
OUT: 485

Continuing:
IN: Find the measured emission maximum of N#Cc1cc(-c2ccc(N3c4ccccc4Oc4ccccc43)cc2)c(-c2ccc(N3c4ccccc4Oc4ccccc43)cc2)cc1C#N and report it.
OUT: 577

IN: Find the measured emission maximum of CN(C)c1ccc(C2=Nc3sc4cc(C(F)(F)F)ccc4[n+]3[B-](F)(F)O2)cc1 and report it.
OUT: 460

IN: Given the compound c1ccc(-c2nc(-c3ccc(N4c5ccccc5C(c5ccccc5)(c5ccccc5)c5ccccc54)cc3)cc(-c3ccccn3)n2)cc1 , write its reported emission maximum.
OUT: 460

IN: Could you please provide reported emission maximum for CCCCC(CC)CN1C(=O)c2cccc3c(C#Cc4ccc(N(c5ccccc5)c5ccccc5)cc4)ccc(c23)C1=O (configuration not stated) ? Thanks!
OUT: 512

###

# ASSAY_PROCEDURE: solvent given as SMILES
# SETUP_CONDITIONS: in Cc1ccccc1
This listing pairs compounds with measured emission maximum.
Note: state the figure and append the unit.

IN: Determine its reported emission maximum: COc1ccc(N(c2ccc(C=C(c3ccccc3)c3ccccc3)cc2)c2ccc(C=C(c3ccccc3)c3ccccc3)cc2)cc1
OUT: 477 nm

IN: Give emission maximum for the following compound: COC(=O)C(Cc1ccc2oc(-c3ccc(Nc4ccccc4)cc3)nc2c1)NC(=O)OC(C)(C)C (stereo not drawn)
OUT: 401.49 nm

IN: Provide emission maximum value for the following compound: CN(C)c1ccc2c(c1)COc1c-2oc2ccccc2c1=O
OUT: 441 nm

IN: Consider the compound CC1(C)c2ccccc2N(c2ccc(-c3ccc(C#N)nc3)cc2)c2ccccc21 and give its recorded emission maximum.
OUT: 488 nm

IN: Tell us which emission maximum value is on record for CC(=O)c1c2c(cc3cc(N(C)C)ccc13)CCC2
OUT: 481 nm

IN: In one line, give reported emission maximum of the entry N#CC(C#N)=Cc1ccc2nc(C#Cc3ccc(N(c4ccccc4)c4ccccc4)cc3)sc2c1 .
OUT: 535 nm

Further cases:
IN: Read off the recorded emission maximum for COc1ccc(C2=C(c3ccc(OC)cc3)C(c3ccccc3)=[N+]3C2=Nc2c(-c4ccc(OC)cc4)c(-c4ccc(OC)cc4)c(-c4ccccc4)n2[B-]3(F)F)cc1
OUT: 750 nm

IN: Please supply the value of reported emission maximum for the item COc1ccc(-c2ccc3c(c2)c2cc(-c4ccc(OC)cc4)ccc2n3-c2ccc(C(=O)c3ccc4sc5ccccc5c4c3)nc2)cc1
OUT: 487.2 nm

###

Below is a list of entries, each paired with its recorded emission maximum value.
# ASSAY_PROCEDURE: solvent given as SMILES
# SETUP_CONDITIONS: in CCOC(C)=O

IN: Report measured emission maximum; entry is CCCCCCOc1ccc(C#Cc2ccc(C#Cc3ccc(OCCCCCC)c(OCCCCCC)c3)c3nsnc23)cc1OCCCCCC
OUT: 550 nm

IN: Tell me emission maximum reported for CCn1c(-c2ccc(OC)cc2)c(-c2ccc3ccccc3c2)c(-c2ccc3ccccc3c2)c1-c1ccc(OC)cc1
OUT: 404 nm

IN: Fill in emission maximum for record N#CC(C#N)=Cc1cn(-c2ccccc2)nc1-c1ccccc1
OUT: 427 nm

IN: Look up emission maximum of CC(C)c1cc(C(C)C)c(B2c3cc(N4c5ccccc5C(C)(C)c5ccccc54)ccc3N(c3ccccc3)c3ccc(N4c5ccccc5C(C)(C)c5ccccc54)cc32)c(C(C)C)c1 and report it.
OUT: 481.97 nm

IN: Give the reported value of emission maximum for this record: CCn1c2ccccc2c2cc(C#Cc3cc(C#Cc4ccc5c(c4)c4ccccc4n5CC)nc(S(C)(=O)=O)n3)ccc21
OUT: 491 nm

###

# ASSAY_PROCEDURE: solvent given as SMILES
# SETUP_CONDITIONS: in CCCCCC
Field: label. Allowed values: Satisfied (emission maximum < 400 nm) or Not satisfied (emission maximum >= 400 nm).

IN: Input CN(C)c1ccc(/C=C/c2ccc(C#N)cc2)cc1 ; condition: emission maximum strictly below 400 nm. Does it hold?
OUT: Not satisfied

Next:
IN: Threshold test, emission maximum < 400 nm: COc1cccc(-n2c(-c3ccc(O)cc3)nc(C)c2C)c1
OUT: Satisfied

IN: Please state whether emission maximum is below 400 nm for COc1ccc(-c2ccc(-c3ccc(OC)cc3)c3nc(-c4ccccc4)c(-c4ccccc4)nc23)cc1
OUT: Not satisfied

IN: Please let me know if O=c1oc2ccc3ccccc3c2nc1-c1ccccc1 shows emission maximum below 400 nm.
OUT: Not satisfied

IN: Does this compound meet the criterion emission maximum < 400 nm? CCCCCCCCOc1ccc(C2=C3C(C)=C(C#Cc4ccc(B(c5c(C)cc(C)cc5C)c5c(C)cc(C)cc5C)cc4)C(C)=[N+]3[B-](F)(F)n3c(C)c(C#Cc4ccc(B(c5c(C)cc(C)cc5C)c5c(C)cc(C)cc5C)cc4)c(C)c32)cc1
OUT: Not satisfied

IN: State whether 400 nm exceeds emission maximum recorded for CC(C)[Si](C#Cc1ccc(C#C[Si](C(C)C)(C(C)C)C(C)C)c2nc3c(nc12)Cc1ccccc1-3)(C(C)C)C(C)C .
OUT: Not satisfied

IN: Please indicate whether the reported emission maximum of CC(C)[Si](C#Cc1c2nsnc2c(C#C[Si](C(C)C)(C(C)C)C(C)C)c2nc3c(nc12)C1c2ccccc2C3c2ccccc21)(C(C)C)C(C)C is strictly below 400 nm.
OUT: Not satisfied

IN: Criterion: emission maximum strictly below 400 nm. Is it met by CCOC(=O)COc1ccc(/C=C/C2=C3c4ccccc4C(c4[nH]c(C)cc4C)=[N+]3[B-](F)(F)n3c(C)cc(C)c32)cc1 ?
OUT: Not satisfied

IN: Lab log: compare recorded emission maximum with 400 nm; is it strictly lower for COc1ccc(N2c3cc(OC)ccc3N=c3cc4c(cc32)=Nc2cc(C(C)(C)C)cc(C(C)(C)C)c2O4)cc1 ?
OUT: Not satisfied

IN: Below 400 nm on emission maximum? Entry N#Cc1ccc(-c2ccc(C3=CCCCC3)s2)s1
OUT: Not satisfied

IN: Dear colleague, could you confirm whether emission maximum of Cc1ccc(C)n1-c1ccc(N(C)C)cc1 falls below 400 nm? Thanks.
OUT: Satisfied

IN: Please check: emission maximum for CCCCCCC(CCCCCC)N1C(=O)c2cccc3c(-c4ccc(OC)c5ccccc45)ccc(c23)C1=O , strictly under 400 nm or not?
OUT: Not satisfied

IN: Does this compound meet the criterion emission maximum < 400 nm? Oc1ccccc1/C=N/N=C/c1ccccc1O
OUT: Not satisfied

IN: Say whether its emission maximum is strictly beneath 400 nm. Entry: CC(C)[Si](C#Cc1c2nsnc2c(C#C[Si](C(C)C)(C(C)C)C(C)C)c2nc3c(ccc4ccccc43)nc12)(C(C)C)C(C)C
OUT: Not satisfied

IN: Below 400 nm on emission maximum? Entry CCCCc1ccc2ccc3c(CCCC)cc(CCCC)c4ccc1c2c34
OUT: Satisfied

# credit: the Deep4Chem optical property database
